All figures here come from ChEMBL document CHEMBL1201862.

- Tested on: LOX IMVI
- assay: NCI tumour cell line growth inhibition, 48 h
Calls of active or inactive are those of the source. No stated cut-off is given here; in the data, active = GI50 up to about 1.1 µM and inactive = higher.
measurement name: GI50

Lookup: Record request: GI50 value, item COc1ccc(NCc2c(O)ccc3ccccc23)cc1
Found: 15.9 µM (inactive)

Lookup: Record request: GI50 value, item CC(/C=N/N=C1NCCCN1)=N\N=C1NCCCN1
Found: > 100 µM (inactive)

Lookup: Record request: GI50 value, item COc1cc(-c2cccs2)sc1-c1cccs1
Found: 46.2 µM (inactive)

Lookup: Record request: GI50 value, item CC(C)C[C@H]1[C@@H](OCc2ccccc2)COS(=O)(=O)N1[C@H](C)c1ccccc1
Found: 13.4 µM (inactive)

Lookup: Record request: GI50 value, item CC[C@@H]1C[C@H]2CC3c4[nH]c5ccc(O)cc5c4CCN(C2)C31
Found: > 100 µM (inactive)

Lookup: Record request: GI50 value, item COc1cc(Br)c(CC2(C#N)c3ccccc3C3C(N2C(=O)c2ccccc2)C3(Cl)Cl)cc1OC (stereo not given)
Found: > 65.5 µM (inactive)

Lookup: Record request: GI50 value, item C=C(C)C12CC3CC/C(=N/O)C(C1)C3(N1CCOCC1)C/C2=N/O (stereo not given)
Found: > 100 µM (inactive)

Lookup: Record request: GI50 value, item CC(C)(C)OC(=O)N1CCC(C(=O)O)CC1
Found: > 100 µM (inactive)

Lookup: Record request: GI50 value, item COc1cccc(-c2cc(=O)c3ccccc3o2)c1N
Found: > 100 µM (inactive)

Lookup: Record request: GI50 value, item COC(=O)C(Cc1ccc(Oc2cc(CC(NC(=O)c3ccccc3)C(=O)OC)ccc2OC)cc1)NC(=O)c1ccccc1 (stereo not given)
Found: 8.26 µM (inactive)

Lookup: Record request: GI50 value, item Cc1cc(-c2c(F)cc3c4nn([C@H]5CC[C@@H](N(C)C)CC5)c(=O)c-4cn(C4CC4)c3c2F)cc(C)n1
Found: 0.0998 µM (active)

Lookup: Record request: GI50 value, item O=S(=O)(c1ccccc1)n1c(C(O)c2ccccc2)cc2ccccc21 (stereo not given)
Found: 30.1 µM (inactive)

Lookup: Record request: GI50 value, item CC(C)=CCCC(C)C1=C(O)C(=O)C(C)=CC1=O (stereo not given)
Found: 3.66 µM (inactive)

Lookup: Record request: GI50 value, item O=C(COc1ccc(OCC(=O)N/N=C/c2ccc(-c3ccc(Cl)cc3Cl)o2)c(Cl)c1)N/N=C/c1ccc(-c2ccc(Cl)cc2Cl)o1
Found: 57.9 µM (inactive)

Lookup: Record request: GI50 value, item Fc1ccc(C(OCCN2CCC3CCC(C2)N3Cc2cc3ccccc3[nH]2)c2ccc(F)cc2)cc1 (stereo not given)
Found: 1.79 µM (inactive)

Lookup: Record request: GI50 value, item CC(=O)Nc1ccc(NCC(=O)Nn2cnc3ccc(S(=O)(=O)Nc4ccc(NC(C)=O)cc4)cc3c2=O)cc1
Found: > 100 µM (inactive)

Lookup: Record request: GI50 value, item C=CS(=O)(=O)c1c2cc(OC)ccc2nc2ccc(OC)cc12
Found: 2.21 µM (inactive)

Lookup: Record request: GI50 value, item CC1(C)CC2=NC(SSC3=C(C#N)C(c4ccc(Br)cc4)C4=C(O)CC(C)(C)CC4=N3)=C(C#N)C(c3ccc(Br)cc3)C2=C(O)C1 (stereo not given)
Found: > 100 µM (inactive)

Lookup: Record request: GI50 value, item CCOC(=O)c1ccc(N(C)Cc2cnc3nc(N)nc(N)c3n2)cc1
Found: 5.5 µM (inactive)

Lookup: Record request: GI50 value, item CC#CC(=O)SCCNC(=O)CC
Found: 3.31 µM (inactive)
